# method: Mouse plasma protein binding
# Format: in vitro ADME
Numbered stars: 1 amine (or outer) side, 2 acyl side, 3 side chain; on linkers, the order of the positions; unused ones are H or OH. Square brackets hold non-standard residues; d marks the D form. Peptide text beside a SMILES is read from it. X1 = N=C(N)NCCC[C@H](N[*:1])C(=O)c1nc2ccc(C(=O)[*:2])cc2s1
Item-by-item account of Mouse PPB (% free)
Answer with a number only, understood to be in % free.

molecule	measurementUnit	Mouse PPB (% free)
CC(=O)N[C@@H](CO)C(=O)N[C@@H](CCCCN)C(=O)N[C@@H](CC(C)C)C(=O)N[C@@H](CCCNC(=N)N)C(=O)c1nc2ccc(C(=O)N[C@H](C(N)=O)C(C)C)cc2s1 [Compound 31] (Ac-SKL[X1]V-NH2)	% free	16.7

Data request: Supply Mouse PPB (% free) value. Item: CC(=O)N[C@H]1CCCCNC(=O)C[C@@H](C(=O)N[C@@H](CCCNC(=N)N)C(=O)c2nc3ccccc3s2)NC(=O)[C@H](CC(C)C)NC1=O
Data returned: 85.3

----------
Quick list: Mouse PPB (% free) per entry.
# method: Mouse plasma protein binding
# Format: in vitro ADME
The reply should be a number in % free, with the unit left off.

Some compounds with known Mouse PPB (% free) results, for comparison:
compound	Mouse PPB (% free)
CC(=O)N[C@H]1CC(=O)NCCCC[C@@H](C(=O)N[C@@H](CCCNC(=N)N)C(=O)c2nc3ccccc3s2)NC(=O)[C@H](CC(C)C)NC1=O	28.6
CC(=O)N[C@H]1CCC(=O)NCCCC[C@@H](C(=O)N[C@@H](CCCNC(=N)N)C(=O)c2nc3ccccc3s2)NC(=O)[C@H](CC(C)C)NC1=O [Compound 19, Ac-cyclo(ELK)-R- ketobenzothiazole]	6.0
CC(=O)N[C@H]1CCCCNC(=O)CC[C@@H](C(=O)N[C@@H](CCCNC(=N)N)C(=O)c2nc3ccccc3s2)NC(=O)[C@H](CCCNC(=N)N)NC1=O	25.9

Now consider the entry below.
Data request: Identify the reported Mouse PPB (% free) for the following entry. CC(=O)N[C@H]1CCCCNC(=O)CC[C@@H](C(=O)N[C@@H](CCCNC(=N)N)C(=O)c2nc3ccccc3s2)NC(=O)[C@H](CC(C)C)NC1=O
Data returned: 18.4

----------
# method: In vitro stability in mouse plasma
# Format: in vitro ADME
measuredParameter: half-life (min)
Respond with the bare value in min.

Data request: Could you please provide reported half-life for CC(=O)N[C@H]1CCC(=O)NCCCC[C@@H](C(=O)N[C@@H](CCCNC(=N)N)C(=O)c2nc3ccccc3s2)NC(=O)[C@H](CC(C)C)NC1=O [Compound 19, Ac-cyclo(ELK)-R- ketobenzothiazole] ? Thanks!
Data returned: 157

----------
# systemName: thrombin (Homo sapiens, UniProt P00734)
# method: Chromogenic kinetic enzyme assay, thrombin
# Format: biochemical
# appliedConditions: read-out: Thrombin IC50; chromogenic substrate S2238
measuredParameter: IC50

compound	IC50
CC(=O)N[C@H]1CC(=O)NCCCC[C@@H](C(=O)N[C@@H](CCCNC(=N)N)C(=O)c2nc3ccccc3s2)NC(=O)[C@H](CC(N)=O)NC1=O [Compound 25, Ac-cyclo(DNK)-R- ketobenzothiazole]	> 20 µM
CC(=O)N[C@H]1CC(=O)NCCCC[C@@H](C(=O)N[C@@H](CCCNC(=N)N)C(=O)c2nc3ccccc3s2)NC(=O)[C@H](C)NC1=O [Compound 23, Ac-cyclo(DAK)-R- ketobenzothiazole]	> 20 µM

Now turn to the next compound.
Data request: Provide measured IC50 value, entry: CC(=O)N[C@H]1CC(=O)NCCCC[C@@H](C(=O)N[C@@H](CCCNC(=N)N)C(=O)c2nc3ccccc3s2)NC(=O)[C@H](CCC(N)=O)NC1=O [Compound 26, Ac-cyclo(DQK)-R- ketobenzothiazole]
Data returned: > 20 µM
